- EXPERIMENTAL_SYSTEM: human iTCR (Homo sapiens, UniProt P15813)
- Sequence (P15813 whole entry): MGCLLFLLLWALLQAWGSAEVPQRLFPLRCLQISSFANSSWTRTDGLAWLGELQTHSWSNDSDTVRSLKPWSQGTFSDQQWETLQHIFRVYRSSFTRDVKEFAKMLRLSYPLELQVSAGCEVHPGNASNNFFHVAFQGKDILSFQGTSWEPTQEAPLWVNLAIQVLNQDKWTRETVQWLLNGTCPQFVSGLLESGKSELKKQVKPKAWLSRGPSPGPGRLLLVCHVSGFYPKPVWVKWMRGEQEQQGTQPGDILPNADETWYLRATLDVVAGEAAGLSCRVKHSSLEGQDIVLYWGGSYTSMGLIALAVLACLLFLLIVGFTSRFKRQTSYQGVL
- RUN_DESCRIPTION: In vitro activation of human iTCR through a Jurkat reporter cell line (JiNKT, GFP under NFKB promoter) co-cultured with compound-loaded BWSTIM cells
- CONDITIONS: percentage of JiNKT cells expressing high levels of GFP by flow cytometry; BWSTIM loaded 4 hours, co-cultured 18 to 24 hours
pEC50: −log10 of the molar value.
RECORDED_METRIC: pEC50

[[record]]
compound_structure = "CCCCCCCCCCCCCCC[C@@H](O)[C@H](CO[C@H]1O[C@H](CO)[C@H](O)[C@H](O)[C@H]1O)NC(=O)CCCCCCCCCCCCCCCCCCCCCCCC12CC(F)(C1)C2"
observed = 5.75


A: CCCCCCCCCCCCCCC[C@@H](O)[C@H](CC[C@H]1O[C@H](COC(=O)CCc2ccccc2)[C@H](O)[C@H](O)[C@H]1O)NC(=O)CCCCCCCCCCCCCCCCCCCCCCCC12CC(F)(C1)C2
B: CCCCCCCCCCCCCC[C@@H](O)[C@@H](O)[C@H](CC[C@H]1O[C@H](CO)[C@H](O)[C@H](O)[C@H]1O)NC(=O)CCCCCCCCCCCCCCCCCCCCCCCC12CC(F)(C1)C2
Dear colleague, could you let me know whether A or B has the lower recorded pEC50? Thanks. Pick one and reply with its label. B
(B: 5.93, A: 6.21)

# credit: patent US20250381206A1
